Cited source: patent US10479795B2

molecular target: PI3Kδ (p110δ/p85α) Recombinant Human Protein (Homo sapiens (Human)); assay: PI3Kδ Scintillation Proximity Assay
Sequence (O00329 whole entry): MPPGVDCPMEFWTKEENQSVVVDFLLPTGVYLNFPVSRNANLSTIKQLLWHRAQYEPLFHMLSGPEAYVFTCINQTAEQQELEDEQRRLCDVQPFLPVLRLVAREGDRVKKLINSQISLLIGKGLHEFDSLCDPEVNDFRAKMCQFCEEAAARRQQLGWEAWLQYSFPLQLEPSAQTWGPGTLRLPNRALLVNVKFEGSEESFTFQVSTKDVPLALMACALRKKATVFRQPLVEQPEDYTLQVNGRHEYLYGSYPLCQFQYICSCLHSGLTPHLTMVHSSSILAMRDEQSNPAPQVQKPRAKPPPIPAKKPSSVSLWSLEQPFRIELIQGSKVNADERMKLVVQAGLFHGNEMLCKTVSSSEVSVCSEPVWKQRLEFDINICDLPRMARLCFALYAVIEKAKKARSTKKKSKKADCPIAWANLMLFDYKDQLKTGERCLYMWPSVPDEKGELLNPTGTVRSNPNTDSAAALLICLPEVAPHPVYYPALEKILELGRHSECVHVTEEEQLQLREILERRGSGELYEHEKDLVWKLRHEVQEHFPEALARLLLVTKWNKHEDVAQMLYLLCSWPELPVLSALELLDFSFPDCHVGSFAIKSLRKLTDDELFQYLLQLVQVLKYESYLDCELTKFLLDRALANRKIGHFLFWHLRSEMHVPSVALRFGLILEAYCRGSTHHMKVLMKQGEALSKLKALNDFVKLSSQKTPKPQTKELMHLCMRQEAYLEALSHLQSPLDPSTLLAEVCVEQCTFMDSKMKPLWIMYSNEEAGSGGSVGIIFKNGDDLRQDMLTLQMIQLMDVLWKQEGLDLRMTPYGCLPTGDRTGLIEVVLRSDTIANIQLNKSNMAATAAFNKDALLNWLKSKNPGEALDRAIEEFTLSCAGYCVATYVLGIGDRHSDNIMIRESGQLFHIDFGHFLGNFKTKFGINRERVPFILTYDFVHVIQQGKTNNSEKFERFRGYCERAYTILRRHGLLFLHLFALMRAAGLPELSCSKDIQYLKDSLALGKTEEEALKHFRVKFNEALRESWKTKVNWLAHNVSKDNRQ
Sequence (P27986 whole entry partner): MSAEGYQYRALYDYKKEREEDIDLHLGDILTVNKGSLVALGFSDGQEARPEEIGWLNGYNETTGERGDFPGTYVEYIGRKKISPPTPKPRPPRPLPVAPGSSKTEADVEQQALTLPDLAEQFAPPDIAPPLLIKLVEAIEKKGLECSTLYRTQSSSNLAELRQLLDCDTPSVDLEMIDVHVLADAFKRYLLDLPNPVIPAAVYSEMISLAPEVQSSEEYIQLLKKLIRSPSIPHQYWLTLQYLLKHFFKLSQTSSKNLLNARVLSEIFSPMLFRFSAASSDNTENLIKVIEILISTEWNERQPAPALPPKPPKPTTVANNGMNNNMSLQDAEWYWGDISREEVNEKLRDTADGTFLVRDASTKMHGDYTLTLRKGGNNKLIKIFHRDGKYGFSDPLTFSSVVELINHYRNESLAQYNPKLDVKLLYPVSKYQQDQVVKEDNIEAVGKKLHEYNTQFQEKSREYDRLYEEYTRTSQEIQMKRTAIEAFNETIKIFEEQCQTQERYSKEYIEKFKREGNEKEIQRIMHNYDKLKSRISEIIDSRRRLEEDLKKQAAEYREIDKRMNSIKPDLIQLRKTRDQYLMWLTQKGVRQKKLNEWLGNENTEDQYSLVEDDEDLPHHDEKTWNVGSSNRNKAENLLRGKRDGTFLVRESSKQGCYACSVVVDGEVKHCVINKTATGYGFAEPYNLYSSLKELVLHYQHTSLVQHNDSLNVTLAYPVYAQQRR
pIC50: −log10 of the molar value. Structures can show the parent of a compound that is named as a salt.
Provide the recorded pIC50 for the entries that follow.

Data request, read-out pIC50, for Cc1ccc(S(=O)(=O)NC23CC(C#N)(C2)C3)cc1-c1cnc2c(N)nc(C(F)(F)F)nn12 [Example 330, trifluoroacetate salt]
> 7.00

Data request, read-out pIC50, for Cc1ccc(S(=O)(=O)N[C@H]2CC[C@H](O)CC2)cc1-c1cnc2c(N)nc(-c3ccc(C(=O)N(C)C)cc3F)cn12 [Example 79, trifluoroacetate]
> 7.00

Data request, read-out pIC50, for "Cc1ccc(S(=O)(=O)N[C@H]2CC[C@H](CO)OC2)cc1-c1cnc2c(N)nc(C(F)(F)F)nn12"
6.30 to 7.00

Data request, read-out pIC50, for Cc1c(F)cc(S(=O)(=O)NC23CCC(C#N)(C2)C3)cc1-c1cnc2c(N)nc(C(F)(F)F)nn12 [Example 416, trifluoroacetate salt]
6.30 to 7.00

Data request, read-out pIC50, for "Cc1ccc(S(=O)(=O)NCC2CCC(F)(F)CC2)cc1-c1cnc2c(N)ncnn12"
5.70 to 6.30

Data request, read-out pIC50, for Cc1ccc(S(=O)(=O)N2CCC(O)C3(CC3)C2)cc1-c1cnc2c(N)ncnn12 (stereo not drawn)
< 5.70

Data request, read-out pIC50, for "Cc1ccc(S(=O)(=O)NC23CCC(C#N)(CC2)CC3)cc1-c1cnc2c(N)ncnn12"
6.30 to 7.00

Data request, read-out pIC50, for Cc1cc(Cl)c(S(=O)(=O)N[C@H]2CC[C@](C)(O)CC2)cc1-c1cnc2c(N)nc(C(F)(F)F)nn12 [Example 410, trifluoroacetate salt]
> 7.00

Data request, read-out pIC50, for "Cc1ccc(S(=O)(=O)N(CCC#N)C2CCCCC2)cc1-c1cnc2c(N)nc(C(F)(F)F)cn12"
5.70 to 6.30

Data request, read-out pIC50, for Cc1ccc(S(=O)(=O)NC23CC(c4ncno4)(C2)C3)cc1-c1cnc2c(N)nc(C(F)(F)F)cn12 [Example 295, trifluoroacetate salt]
5.70 to 6.30

Data request, read-out pIC50, for Cc1nc(N)c2ncc(-c3cc(S(=O)(=O)N[C@H]4CC[C@](C)(O)CC4)c(F)cc3C)n2n1 [Example 402, trifluoroacetate salt]
6.30 to 7.00

Data request, read-out pIC50, for "Cc1ccc(S(=O)(=O)N[C@H]2CC[C@H](O)CC2)cc1-c1cnc2c(N)nc(-c3ccc(CO)cc3F)cn12"
> 7.00

Data request, read-out pIC50, for Cc1ccc(S(C)(=O)=O)cc1-c1cnc2c(N)nc(C(=O)Nc3ccc(N4CCN(C)CC4)cn3)cn12 [Example 455, trifluoroacetate salt]
5.70 to 6.30

Data request, read-out pIC50, for "Cc1ccc(S(=O)(=O)N[C@H]2CC[C@H](O)CC2)cc1-c1cnc2c(N)nc(-c3c(C)noc3C)cn12"
6.30 to 7.00

Data request, read-out pIC50, for "Cc1ccc(S(=O)(=O)N2CCC[C@@H](N(C)C)C2)cc1-c1cnc2c(N)nc(C(F)(F)F)cn12"
5.70 to 6.30
